# TEST PROTOCOL: chemical genetic growth profiling, strain panel (AID 1159580);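 also: tested at 20 µM; growth read once vehicle control cultures reached saturation at 30 °C; 1 = growth at the plate median or of vehicle wells; lower values mean less growth of the strain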
# TEST SETTINGS: S. cerevisiae deletion strains, growth OD, locus YPL241C, strain CIN2, hits give low values
Hit rate of the full screen: of about 5,500 compounds, about 2,000 (36%) were called active. Another 18% or so got no clear call; they are omitted. This is one part of the list.
ASSAY METRIC: normalized growth
Please state the value as a number alone, without comment.

Data request, read-out normalized growth, for "CCCc1nn(C)c2c(=O)[nH]c(-c3cc(S(=O)(=O)N4CCN(C)CC4)ccc3OCC)nc12"
1.02

Data request, read-out normalized growth, for "O=[N+]([O-])c1cnc2ccccn12"
1.02

Data request, read-out normalized growth, for "COc1ccc(-c2cc(=O)c3c(O)cc(O)cc3o2)cc1O"
1

Data request, read-out normalized growth, for "Cn1c(=O)c2[nH]c(-c3ccc(S(=O)(=O)O)cc3)nc2n(C)c1=O"
1.02

Data request, read-out normalized growth, for CC(=O)N1CCCC1C(=O)O (configuration not stated)
1.01

Data request, read-out normalized growth, for "C/C=C(\C)C(=O)O[C@@H]1c2c(ccc3ccc(=O)oc23)OC(C)(C)[C@@H]1OC(C)=O"
0.986

Data request, read-out normalized growth, for "CSc1nc(NC(C)C)nc(NC(C)C)n1"
1.01

Data request, read-out normalized growth, for NS(=O)(=O)c1cc2c(cc1C(F)(F)F)NC(Cc1ccccc1)NS2(=O)=O (configuration not stated)
1.01

Data request, read-out normalized growth, for COP(N)(=O)SC (configuration not stated)
0.994

Data request, read-out normalized growth, for Cc1c(OCC(F)(F)F)ccnc1CS(=O)c1nc2ccccc2[nH]1 (configuration not stated)
1

Data request, read-out normalized growth, for "CC1(C)[C@@H]2CC[C@@]1(C)C(=O)C2"
1

Data request, read-out normalized growth, for "COc1cc(C(=O)N2CCOCC2)cc(OC)c1OC"
1.01

Data request, read-out normalized growth, for "N#CCS(=O)(=O)c1cccs1"
0.983

Data request, read-out normalized growth, for "c1ccc(-c2ncc3ccccn23)cc1"
0.928

Data request, read-out normalized growth, for "COC(=O)NC(=S)Nc1ccccc1NC(=S)NC(=O)OC"
1.01

Data request, read-out normalized growth, for "C/C=C(/C)C(=O)O[C@@H]1Cc2c(ccc3ccc(=O)oc23)OC1(C)C"
0.953

Data request, read-out normalized growth, for "COC(OC)c1ccc(C#N)c(=S)[nH]1"
1.11

Data request, read-out normalized growth, for "Cn1c(SCC(=O)N2CCOCC2)nnc1-c1ccc2ncccc2c1"
1.05

Data request, read-out normalized growth, for O=c1c(O)cccc2c(C3Oc4cc(O)cc(O)c4CC3O)cc(O)c(O)c12 (configuration not stated)
0.617

Data request, read-out normalized growth, for "NC(=O)c1ccccc1O"
1.01

Data request, read-out normalized growth, for "COc1nc(NC(C)C)nc(NC(C)C)n1"
1.02

Data request, read-out normalized growth, for CC1CCCC(C)N1NC(=O)c1ccc(Cl)c(S(N)(=O)=O)c1 (configuration not stated)
1
